Assay: Permeability of compound in human Caco-2 cells
Type: ADME, cell-based
experimentalEndpoint: Papp

[[record]]
compound = "N#Cc1ccc(N2CCC(c3ccc(OCCCCN4CCN(c5ccc6c(c5)CN(C5CCC(=O)NC5=O)C6=O)CC4)cc3)CC2)cc1C(F)(F)F (configuration not stated)"
experimentalendpoint = "Papp"
recordedresult = "< 0.05 ×10⁻⁶ cm/s"


Next:
IN: For the compound shown here, COc1cc(N2CCN(CC3CCN(c4ccc(C5CCN(c6ccc(C#N)c(C(F)(F)F)c6)CC5)cc4)CC3)CC2)cc2c1C(=O)N(C1CCC(=O)NC1=O)C2 (configuration not stated) , give the reported Papp.
OUT: < 0.05 ×10⁻⁶ cm/s

----------
Target: Protein cereblon/Androgen receptor (Homo sapiens, UniProt P10275+Q96SW2)
Sequence (P10275 whole entry, looked up): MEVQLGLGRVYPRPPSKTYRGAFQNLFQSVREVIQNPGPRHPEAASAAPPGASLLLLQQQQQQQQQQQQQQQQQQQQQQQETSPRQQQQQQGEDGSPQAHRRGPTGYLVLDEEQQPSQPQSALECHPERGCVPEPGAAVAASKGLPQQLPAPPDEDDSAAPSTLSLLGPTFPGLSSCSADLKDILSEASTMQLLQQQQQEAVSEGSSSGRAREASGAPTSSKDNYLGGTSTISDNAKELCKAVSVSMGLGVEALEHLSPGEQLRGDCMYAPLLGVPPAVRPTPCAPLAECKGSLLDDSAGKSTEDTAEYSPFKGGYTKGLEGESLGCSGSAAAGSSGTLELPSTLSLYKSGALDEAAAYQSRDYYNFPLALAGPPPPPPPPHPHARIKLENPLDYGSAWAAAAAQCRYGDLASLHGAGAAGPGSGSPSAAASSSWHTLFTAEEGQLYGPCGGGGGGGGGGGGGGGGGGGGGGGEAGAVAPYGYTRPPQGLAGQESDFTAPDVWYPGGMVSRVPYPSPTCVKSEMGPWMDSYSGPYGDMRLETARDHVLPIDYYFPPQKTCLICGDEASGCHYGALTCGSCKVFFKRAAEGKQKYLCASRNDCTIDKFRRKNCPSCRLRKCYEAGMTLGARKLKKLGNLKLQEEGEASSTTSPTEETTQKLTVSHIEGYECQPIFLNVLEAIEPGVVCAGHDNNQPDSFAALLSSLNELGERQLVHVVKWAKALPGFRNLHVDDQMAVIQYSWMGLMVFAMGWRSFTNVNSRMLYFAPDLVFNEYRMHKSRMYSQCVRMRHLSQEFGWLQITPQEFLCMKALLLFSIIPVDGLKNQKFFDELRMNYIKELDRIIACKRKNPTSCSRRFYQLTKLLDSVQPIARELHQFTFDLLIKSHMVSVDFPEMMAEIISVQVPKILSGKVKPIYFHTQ
Sequence (Q96SW2 whole entry, looked up): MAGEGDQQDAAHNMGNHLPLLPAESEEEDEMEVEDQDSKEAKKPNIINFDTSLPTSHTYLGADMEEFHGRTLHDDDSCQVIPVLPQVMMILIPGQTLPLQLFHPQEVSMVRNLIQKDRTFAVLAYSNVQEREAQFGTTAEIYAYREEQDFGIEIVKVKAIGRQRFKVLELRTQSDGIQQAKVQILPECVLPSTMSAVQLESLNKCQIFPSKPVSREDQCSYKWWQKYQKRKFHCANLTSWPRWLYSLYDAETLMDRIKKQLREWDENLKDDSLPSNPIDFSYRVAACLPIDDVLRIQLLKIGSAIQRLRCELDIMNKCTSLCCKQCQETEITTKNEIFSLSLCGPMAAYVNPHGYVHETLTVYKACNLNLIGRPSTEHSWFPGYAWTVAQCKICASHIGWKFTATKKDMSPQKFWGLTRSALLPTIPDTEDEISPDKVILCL
Test: PROTAC activity at AR/CRBN in human LNCaP cells assessed as maximal protein degradation measured after 24 hrs incubation by imaging IF assay relative to control
Format: cell-based
experimentalEndpoint: Emax (%)
Answer with a number only, understood to be in %.

Example entries begin here.
[[record]]
compound = "N#Cc1ccc(N2CCC(c3ccc(N4CCC(CN5CCN(c6cc7c(cc6F)C(=O)N(C6CCC(=O)NC6=O)C7=O)CC5)CC4)cc3)CC2)c(F)c1C(F)(F)F (stereo not drawn)"
experimentalendpoint = "Emax"
unitstring = "%"
recordedresult = 100

[[record]]
compound = "N#Cc1ccc(N2CCC(c3ccc(N4CCC(CN5CCN(c6ccc7c(c6)C(=O)N(C6CCC(=O)NC6=O)C7=O)CC5)CC4)cc3)CC2)c(F)c1C(F)(F)F (stereo not drawn)"
experimentalendpoint = "Emax"
unitstring = "%"
recordedresult = 100


Next:
IN: For the compound shown here, N#Cc1ccc(N2CCC(c3ccc(OCCCCN4CCN(c5ccc6c(c5)CN(C5CCC(=O)NC5=O)C6=O)CC4)cc3)CC2)cc1C(F)(F)F (stereo not drawn) , give the reported Emax.
OUT: 97

----------
Below, each entry is listed alongside its reported Emax.
Test system: Protein cereblon/Androgen receptor (Homo sapiens), P10275+Q96SW2 [L702H]
Assay: PROTAC activity at CRBN/AR L702H mutant (unknown origin) expressed in human LNCaP cells assessed as maximal protein degradation measured after 24 hrs incubation by imaging IF assay relative to control
Type: cell-based
Answer with a number only, understood to be in %.

Example entries begin here.
[[record]]
molecule = "COc1cc(N2CCN(CC3CCN(c4ccc(C5CCN(c6ccc(C#N)c(C(F)(F)F)c6F)CC5)c(F)c4)CC3)CC2)cc2c1C(=O)N(C1CCC(=O)NC1=O)C2 (stereo unspecified)"
experimentalendpoint = "Emax"
recordedresult = 100

[[record]]
molecule = "COc1cc(N2CCN(CC3CCN(c4ccc(C5CCN(c6ccc(C#N)c(C(F)(F)F)c6F)CC5)cc4)CC3)CC2)cc2c1C(=O)N(C1CCC(=O)NC1=O)C2 (stereo unspecified)"
experimentalendpoint = "Emax"
recordedresult = 74

[[record]]
molecule = "N#Cc1ccc(N2CCC(c3ccc(OCCCCN4CCN(c5ccc6c(c5)CN(C5CCC(=O)NC5=O)C6=O)CC4)cc3)CC2)c(F)c1C(F)(F)F (stereo unspecified)"
experimentalendpoint = "Emax"
recordedresult = 78

[[record]]
molecule = "N#Cc1ccc(N2CCC(c3ccc(N4CCC(CN5CCN(c6cc7c(cc6F)C(=O)N(C6CCC(=O)NC6=O)C7=O)CC5)CC4)cc3)CC2)c(F)c1C(F)(F)F (stereo unspecified)"
experimentalendpoint = "Emax"
recordedresult = 100

[[record]]
molecule = "COc1cc(N2CCN(CC3CCN(c4cc(F)c(C5CCN(c6ccc(C#N)c(C(F)(F)F)c6F)CC5)c(F)c4)CC3)CC2)cc2c1C(=O)N(C1CCC(=O)NC1=O)C2 (stereo unspecified)"
experimentalendpoint = "Emax"
recordedresult = 80


Next:
IN: For the molecule shown here, N#Cc1ccc(N2CCC(c3ccc(N4CCC(CN5CCN(c6ccc7c(c6)C(=O)N(C6CCC(=O)NC6=O)C7=O)CC5)CC4)cc3)CC2)c(F)c1C(F)(F)F (stereo unspecified) , give the reported Emax.
OUT: 100
